# Target or test system: T1, cynomolgus PD-1 (#PD1-C52H5, AcroBiosystems) (cynomolgus monkey, UniProt B0LAJ3 25-170)
# T1 construct: bought; also called cynomolgus monkey PD-1; not shown: the vendor's tag on the recombinant protein (AcroBiosystems #PD1-C52H5)
# T1 sequence (B0LAJ3 entry or part of it limits assumed, form in doubt): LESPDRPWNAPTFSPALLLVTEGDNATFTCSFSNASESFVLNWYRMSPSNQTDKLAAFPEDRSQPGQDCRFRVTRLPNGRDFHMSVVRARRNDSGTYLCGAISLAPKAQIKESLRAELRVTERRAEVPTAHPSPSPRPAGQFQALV
# Assay details: SPR, PD-1 on captured IgG1
Provide the reported kon of each item.
Number first, unit second: that is the form wanted.

Memo: YCF391 (antibody, human IgG1, V domains shown, human IgG1) VH: VQLVQSGAEVKKPGASVKVSCKASGYTFTNFYIHWVRQAPGQGLEWMGSTYPNYGITAYNQKFKDRVTMTVDTSTSTAYMELRSLRSDDTAVYYCARGYSYAMDYWGQGTTVTVSS VL: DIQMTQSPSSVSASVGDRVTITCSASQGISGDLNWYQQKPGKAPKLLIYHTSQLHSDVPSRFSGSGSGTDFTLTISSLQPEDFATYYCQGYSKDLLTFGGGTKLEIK , reported kon: 391000 M⁻¹ s⁻¹

Memo: DKR699 (antibody, human IgG1, V domains shown, human IgG1) VH: VQLVQSGAEVKKPGASVKVSCKASGYTFTNFYIHWVRQAPGQGLEWMGSIYPNYGDTAYNQKFKDRVTMTVDTSTSTAYMELRSLRSDDTAVYYCARGYSYAMDYWGQGTTVTVSS VL: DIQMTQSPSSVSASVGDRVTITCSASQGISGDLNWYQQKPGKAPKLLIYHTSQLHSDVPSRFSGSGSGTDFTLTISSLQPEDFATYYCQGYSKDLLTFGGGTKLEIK , reported kon: 236000 M⁻¹ s⁻¹

Memo: ACH836 (antibody, human IgG1, V domains shown, human IgG1) VH: VQLVQSGAEVKKPGASVKVSCKASGYTFTNFYIHWVRQAPGQGLEWMGSIYPNYGITAYNQKFKDRVTMTVDTSTSTAYMELRSLRSDDTAVYYCARGYSYAMDYWGQGTTVTVSS VL: DIQMTQSPSSVSASVGDRVTITCSASQGASGDLNWYQQKPGKAPKLLIYHTSQLHSDVPSRFSGSGSGTDFTLTISSLQPEDFATYYCQGYSKDLLTFGGGTKLEIK , reported kon: 493000 M⁻¹ s⁻¹

Memo: ZTD928 (antibody, human IgG1, V domains shown, human IgG1) VH: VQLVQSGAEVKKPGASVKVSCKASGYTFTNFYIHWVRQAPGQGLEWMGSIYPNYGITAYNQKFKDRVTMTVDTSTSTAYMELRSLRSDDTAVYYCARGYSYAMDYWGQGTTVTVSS VL: DIQMTQSPSSVSASVGDRVTITCSASQGISGDLNWYQQKPGKAPKLLIYHTSQLHSDVPSRFSGSGSGTDFTLTISSLQPEDFATYYCQGYSKDTLTFGGGTKLEIK , reported kon: 483000 M⁻¹ s⁻¹
